test system: MRC5; assay: MTS proliferation assay, MRC5; format: cell-based; conditions: Homo sapiens; MRC5, 72 h incubation; read-out: MTS proliferation assay IC 50 MRC5
pIC50: −log10 of the molar value.
Below: a set of entries, each annotated with reported pIC50.

Record excerpt, results attached:
>  <COMPOUND_STRUCTURE>
Nc1nonc1-c1nc2ccccc2n1CC(=O)/C=C/c1ccccc1

>  <ASSAYED_SYSTEM>
MRC5

>  <EXPERIMENTAL_RESULT>
< 6.00

$$$$
>  <COMPOUND_STRUCTURE>
CNc1nonc1-c1nc2ccccc2n1CC(=O)c1ccc(Cl)cc1

>  <ASSAYED_SYSTEM>
MRC5

>  <EXPERIMENTAL_RESULT>
< 6.00

$$$$
>  <COMPOUND_STRUCTURE>
Nc1nonc1-c1nc2ccccc2n1COc1ccccc1

>  <ASSAYED_SYSTEM>
MRC5

>  <EXPERIMENTAL_RESULT>
6.00 to 7.00

$$$$
>  <COMPOUND_STRUCTURE>
COc1cc(C(=O)Cn2c(-c3nonc3N)nc3ccccc32)ccc1O

>  <ASSAYED_SYSTEM>
MRC5

>  <EXPERIMENTAL_RESULT>
6.00 to 7.00

$$$$
>  <COMPOUND_STRUCTURE>
Nc1ccc(C(=O)Cn2c(-c3nonc3NCCC(=O)O)nc3ccccc32)cc1

>  <ASSAYED_SYSTEM>
MRC5

>  <EXPERIMENTAL_RESULT>
6.00 to 7.00

$$$$
>  <COMPOUND_STRUCTURE>
CC(=O)Nc1nonc1-c1nc2ccccc2n1CC(=O)c1ccc(Cl)cc1

>  <ASSAYED_SYSTEM>
MRC5

>  <EXPERIMENTAL_RESULT>
6.00 to 7.00

$$$$

Enquiry: # input molecule: N#CCCNc1nonc1-c1nc2ccccc2n1CC(=O)c1ccc(Cl)cc1 ; wanted: its pIC50
Return: 6.00 to 7.00

Enquiry: Next molecule: Nc1nonc1-c1nc2ccccc2n1CC(=NO)c1ccc(Br)cc1
Return: < 6.00

Enquiry: Next molecule: Nc1nonc1-c1nc2ccccc2n1CC(=O)c1ccccc1
Return: < 6.00

* * *

tested on: HeLa; experiment: MTS proliferation assay, HeLa; assay type: cell-based, human; conditions: 72 h incubation, read-out: MTS proliferation assay IC 50 HeLa
pIC50: −log10 of the molar value.
Below: a set of entries, each annotated with reported pIC50.

Record excerpt, results attached:
>  <COMPOUND_STRUCTURE>
Cc1ccc(C(=O)Cn2c(-c3nonc3NCCCO)nc3ccccc32)cc1C

>  <pIC50>
7.00 to 8.00

$$$$
>  <COMPOUND_STRUCTURE>
COc1cc2nc(-c3nonc3N)n(CC(=O)c3ccc(Br)cc3)c2cc1OC

>  <pIC50>
< 6.00

$$$$
>  <COMPOUND_STRUCTURE>
Nc1ccc(C(=O)Cn2c(-c3nonc3N)nc3ccccc32)cc1.O=C(O)C(=O)O

>  <pIC50>
6.00 to 7.00

$$$$

# ---- query compound ----
Enquiry: Kindly state the measured pIC50 obtained for Nc1nonc1-c1nc2ccccc2n1CC(=O)c1ccc(Cl)cc1Cl with HeLa.
Return: 6.00 to 7.00

* * *

tested on: adherent cells or suspension cells; assay: Hoechst 33342 nuclear staining (fraction of apoptotic nuclei); format: cell-based; set-up: key: 0 relating to no activity; 1 relating to weak activity comprising less than 70% of the cells; score 2 relating to strong activity comprising more than 70% of the cells; conditions: HeLa, conc 0.01 μm
QUANTITY_MEASURED: Hoechst 33342 nuclear staining score

>  <COMPOUND>
Cc1cc2nc(-c3nonc3N)n(CC(=O)c3ccc(Cl)cc3)c2cc1C [Example 110]

>  <Hoechst 33342 nuclear staining score>
0

$$$$
>  <COMPOUND>
Nc1nonc1-c1nc2ccccc2n1CC(=O)c1ccc(-c2ccccc2)cc1 [Example 26]

>  <Hoechst 33342 nuclear staining score>
0

$$$$
>  <COMPOUND>
Nc1nonc1-c1nc2ccccc2n1COc1ccc([N+](=O)[O-])cc1 [Example 98]

>  <Hoechst 33342 nuclear staining score>
0

$$$$
>  <COMPOUND>
N#CCCNc1nonc1-c1nc2ccccc2n1COc1ccc(Br)cc1 [Example 94]

>  <Hoechst 33342 nuclear staining score>
0

$$$$
>  <COMPOUND>
Nc1nonc1-c1nc2ccccc2n1CC(=NO)c1ccccc1 (mixture of isomers) [Example 17]

>  <Hoechst 33342 nuclear staining score>
0

$$$$

Enquiry: # input compound: CN(C)c1nonc1-c1nc2ccccc2n1CC(=O)c1ccc(Cl)cc1 [Example 4] ; wanted: its Hoechst 33342 nuclear staining score
Return: 0

Enquiry: Next compound: Cl.Nc1ccc(OCn2c(-c3nonc3N)nc3ccccc32)cc1 [Example 100]
Return: 0

Enquiry: Next compound: Cc1cc2nc(-c3nonc3N)n(CC(=O)c3ccc(-c4ccccc4)cc3)c2cc1C [Example 112]
Return: 0
